Test system: RPMI-8226 leukemia
Assay: NCI tumour cell line growth inhibition, 48 h
reportedMetric: GI50

>  <compound>
C[N+]1=C(/C=C\C=C\c2ccccc2)C(C)(C)c2ccccc21

>  <GI50>
1220 nM

$$$$
>  <compound>
CN(C)CCCNC(=O)c1cc(NC(=O)c2cc(NC(=O)CCNS(=O)(=O)c3ccc4c(c3)C(=O)c3ccccc3C4=O)cn2C)cn1C

>  <GI50>
> 100000 nM

$$$$
>  <compound>
CCCCCCCc1cc2c3c(nc4ccccc42)C(=O)c2cccnc2-c3n1

>  <GI50>
4270 nM

$$$$

Task item: Look up and state reported GI50 for "O=C(/C=C/c1ccc(C(F)(F)F)cc1)c1ccc(Nc2nc(NCCO)nc(Nc3ccc(Cl)cc3)n2)cc1"
Reply: 1560 nM

###

Test system: OVCAR-4 ovarian
Assay: NCI tumour cell line growth inhibition, 48 h; in the data active = GI50 below about 0.43 µM; inactive = the rest
Pick one and only one: Y (active), N (inactive)

Worked cases, answers included:
>  <compound>
C/C(=C\c1csc(C)n1)[C@@H]1C[C@@H]2O[C@]2(C)CCC[C@H](C)[C@H](O)[C@@H](C)C(=O)C(C)(C)[C@@H](O)CC(=O)O1

>  <qualitativeLabel>
N

$$$$
>  <compound>
CCCCCCCc1cc2c3c(nc4ccccc42)C(=O)c2cccnc2-c3n1

>  <qualitativeLabel>
N

$$$$
>  <compound>
O=C1C[C@@H]2/C(=C(O)\C=C\c3ccccc3)C(=O)C=C[C@@H]2O1

>  <qualitativeLabel>
N

$$$$
>  <compound>
COC(=O)CC[C@H](Cc1ccccc1)NC(=O)c1csc([C@@H](C[C@H](C(C)C)N(C)C(=O)[C@@H](NC(=O)[C@H]2CCCCN2C)C(C)C)OC(C)=O)n1

>  <qualitativeLabel>
Y

$$$$
>  <compound>
CCNC(=O)O[C@H]1CN[C@H](C#Cc2cc3ncnc(Nc4ccc(OCc5cccc(F)c5)c(Cl)c4)c3s2)C1

>  <qualitativeLabel>
N

$$$$
>  <compound>
CCOC(=O)c1c2c(n3ccccc13)C(=O)c1ncccc1C2=O

>  <qualitativeLabel>
N

$$$$

Now look at this entry.
Task item: Write down the call the test reported for this compound. Item: "COc1cc2c(cc1OCCCC(=O)Nc1ccc3ccc4cccc5ccc1c3c45)N=C[C@@H]1CCCN1C2=O"
Reply: Y

###

As shown below, each of these compounds has a reported TGI value.
Tested on: SR leukemia
Assay: NCI tumour cell line growth inhibition, 48 h

The cases that follow already have their TGI on record.
>  <compound>
Cn1cc2ccccc2c1-c1nc(F)nc(OCC(=O)[C@H]2CCC3[C@@H]4CCC5=CC(=O)CC[C@]5(C)C4[C@@H](O)C[C@@]32C)n1 (stereo partly specified)

>  <reportedMetric>
TGI

>  <result>
12.8 µM

$$$$
>  <compound>
CCOC(=O)NC(Nc1ccc(C(=O)OCC)cc1)(C(F)(F)F)C(F)(F)F

>  <reportedMetric>
TGI

>  <result>
> 100 µM

$$$$
>  <compound>
N#CC1(C#N)C(C#N)(C#N)C12CCCCCC2

>  <reportedMetric>
TGI

>  <result>
75.2 µM

$$$$
>  <compound>
O=C(O)CN1C(=O)C(Cc2ccc(O)cc2)N=C(c2cccc(O)c2)c2ccccc21 (stereo unspecified)

>  <reportedMetric>
TGI

>  <result>
> 100 µM

$$$$
>  <compound>
CCCSS[C@H]1NC(=O)[C@H]1NC(=O)COc1ccccc1

>  <reportedMetric>
TGI

>  <result>
19.6 µM

$$$$
>  <compound>
C/C(=N\NC(=S)NCCCNC(=S)N/N=C(\C)c1ccccn1)c1ccccn1

>  <reportedMetric>
TGI

>  <result>
6.19 µM

$$$$

Task item: Give TGI for the following compound: OC(c1cc(C23CC4CC(CC(C4)C2)C3)nc2c(Cl)cc(Cl)cc12)C1CCCCN1 (stereo unspecified)
Reply: 2.84 µM

Task item: Tell me TGI reported for "Nc1nc2c3nc(Nc4ccccc4)sc3nc(=O)n2c2sc(Nc3ccccc3)nc12"
Reply: > 100 µM

Task item: For "O=C(OC[C@H]1O[C@H](OC(=O)c2cc(O)c(O)c(OC(=O)c3cc(O)c(O)c(O)c3)c2)[C@H](OC(=O)c2cc(O)c(O)c(OC(=O)c3cc(O)c(O)c(O)c3)c2)[C@@H](OC(=O)c2cc(O)c(O)c(OC(=O)c3cc(O)c(O)c(O)c3)c2)[C@@H]1OC(=O)c1cc(O)c(O)c(OC(=O)c2cc(O)c(O)c(O)c2)c1)c1cc(O)c(O)c(OC(=O)c2cc(O)c(O)c(O)c2)c1" , write its TGI.
Reply: > 25 µM

Task item: Output TGI of CCCCCCCCCCCCCCCCCCN(C)CC(COP(=O)([O-])OCC[N+](C)(C)C)OC (stereo unspecified)
Reply: 28.6 µM

Task item: Note TGI for the compound shown: "O=C1c2ccc(O)c(O)c2C(=O)c2c(O)ccc(O)c21"
Reply: 93.7 µM

###

System: KM12 colon
Test: NCI tumour cell line growth inhibition, 48 h; in the data active = GI50 below about 0.43 µM; inactive = the rest
Lab note: assign the record to one of True (active), False (inactive)

>  <compound>
CCCCCCCc1cc2c3c(nc4ccccc42)C(=O)c2cccnc2-c3n1

>  <qualitativeLabel>
False

$$$$

Task item: What classification did "C=C1C(=O)O[C@H]2[C@H]1CC/C(Cn1cc(-c3ccccc3C(F)(F)F)nn1)=C\CC[C@@]1(C)O[C@@H]21" end up with in this test?
Reply: False

Task item: Outcome? "Oc1ccc2oc3ncc(Br)c(-c4ccccc4)c3c2c1"
Reply: False

Task item: Recorded test outcome, item "Cc1ncc(C(=O)Nc2ccc(CN3CCN(C)CC3)c(C(F)(F)F)c2)cc1C#Cc1cnc(N)cc1C#N"
Reply: True

###

Entries annotated with measured TGI
System: RPMI-8226 leukemia
Assay: NCI tumour cell line growth inhibition, 48 h

>  <compound>
COC(=O)C(CCSC)NC(=O)Cc1ccc(C(=O)c2ccccc2)cc1 (stereo not given)

>  <result>
> 100 µM

$$$$
>  <compound>
CC(=O)OCC1OC(n2c(-c3ccc(C)cc3)cc(-c3ccccc3)c(C#N)c2=O)C(OC(C)=O)C(OC(C)=O)C1OC(C)=O (stereo not given)

>  <result>
> 100 µM

$$$$
>  <compound>
COc1ccc(OCC(=O)O)c(C(=O)CCC(=O)O)c1

>  <result>
> 100 µM

$$$$
>  <compound>
CC1(C)CCC[C@]2(C)[C@H]3[C@H](C#N)c4cc(O)c(O)cc4O[C@@]3(C)CC[C@@H]12

>  <result>
> 10 µM

$$$$

Task item: Give the reported TGI for this compound. COc1cc(/C=c2\sc3n(c2=O)C(c2ccc(Cl)cc2)C2=C(CCCC2C)N=3)cc(OC)c1OC (stereo not given)
Reply: > 100 µM

###

# TGI annotations
Tested on: CCRF-CEM leukemia
Assay: NCI tumour cell line growth inhibition, 48 h

Please review the entries below; each comes with its answer.
>  <molecule>
COC(=O)/C=C/c1cc2c(cc1-c1c(C(=O)O)cc(OC)c(OC)c1OC)OCO2

>  <TGI>
> 10 µM

$$$$
>  <molecule>
Cc1ccc(NC(=O)c2cc(S(=O)(=O)Nc3nc4ncccc4[nH]3)c(SSc3cc(Cl)c(C(=O)Nc4ccc(C)cc4)cc3S(=O)(=O)Nc3nc4ncccc4[nH]3)cc2Cl)cc1

>  <TGI>
> 100 µM

$$$$
>  <molecule>
Cc1nc2c(=O)n(C)ncc2[nH]1

>  <TGI>
> 100 µM

$$$$
>  <molecule>
COc1cc(C(O)(CC#N)c2cc3c(cc2Br)OCO3)cc(OC)c1OC (centres undefined)

>  <TGI>
> 100 µM

$$$$
>  <molecule>
C=C1C2C[C@@H]3O[C@H]4C[C@H]5O[C@@]6(C[C@@H]7O[C@]8(C[C@H](C)[C@@H]9O[C@@H]%10CC(CO)O[C@@H]%10C[C@@H]9O8)C[C@H](C)[C@@H]7O6)C[C@H]5O[C@H]4[C@H](C)[C@H]3OC(=O)C[C@H]3CC[C@@H]4OC5[C@H]6O[C@]7(CC[C@H]8CC(=C)[C@H](CC[C@@H](C[C@H]1C)O2)O8)CC6O[C@@H]5[C@@H](O7)[C@H]4O3 (some centres undefined)

>  <TGI>
> 1 µM

$$$$

Task item: Give TGI for the following molecule: "Cc1cc(S(=O)(=O)Nc2nc3ccccc3c(=O)n2N)c(S)cc1Cl"
Reply: > 100 µM

Task item: Please give measured TGI of the following entry: "COC(=O)[C@@H](C)C[C@H](Cc1ccccc1)NC(=O)c1csc([C@@H](C[C@H](C(C)C)N(C)C(=O)[C@@H](NC(=O)[C@H]2CCCCN2C)C2CC2)OC(C)=O)n1"
Reply: > 16.5 µM

Task item: Fill in TGI for record "Nc1nc2c3nc(Nc4ccccc4)sc3nc(=O)n2c2sc(Nc3ccccc3)nc12"
Reply: > 100 µM

Task item: Kindly indicate its recorded TGI. Item: "CCCCn1c2c(n(CCCC)c1=S)-c1c(n(CCCC)c(=S)n1CCCC)SSc1c(n(CCCC)c(=S)n1CCCC)-c1c(n(CCCC)c(=S)n1CCCC)SSc1c(n(CCCC)c(=S)n1CCCC)-c1c(n(CCCC)c(=S)n1CCCC)SS2"
Reply: > 14.7 µM

The measurements presented in this section are drawn from PubChem BioAssay (NCI).
